- Test system: SETVI
- measurement notes: Pre-emergence herbicidal action against SETVI
- Format: in vivo, Setaria viridis
- conditions used: Setaria viridis, 504 h, dosage 80 g/ha
measured metric: pest or weed control at 80 g/ha (%)

* CCn1nnnc1NC(=O)c1ccc(C(F)(F)F)c(C(=O)NC(C)C)c1C [Example 2-33] | 100
* CNC(=O)c1c(C(F)(F)C(F)(F)F)ccc(C(=O)Nc2nnnn2C)c1Cl [Example 1-165] | 100
* CCc1c(C(=O)Nc2nnnn2C)ccc(C(F)F)c1C(=O)NC [Example 1-277] | 100
* CNC(=O)c1c(OC)ccc(C(=O)Nc2nnnn2C)c1Cl [Example 1-354] | 90
* Cc1c(C(=O)Nc2nnnn2C)ccc(C(F)F)c1C(=O)NC1CC1 [Example 1-46] | 100

###

- System: MATIN
- measurement notes: Pre-emergence herbicidal action against MATIN
- Format: in vivo, Matricaria inodora
- conditions used: Tripleurospermum inodorum, 504 h, dosage 20 g/ha
measured metric: pest or weed control at 20 g/ha (%)

• CCNC(=O)c1c(C(F)(F)F)ccc(C(=O)Nc2nnnn2C)c1C = 100
• CNC(=O)c1c(C(F)F)ccc(C(=O)Nc2nnnn2C)c1Br = 90
• Cn1nnnc1NC(=O)c1ccc(Br)c(C(=O)NC2CC2)c1Br = 90
• Cc1c(C(=O)Nc2nnnn2C)ccc(C(F)(F)F)c1C(=O)NCC(F)(F)F = 100
• CCNC(=O)c1c(C(F)F)ccc(C(=O)Nc2nnnn2C)c1C = 100

###

- Tested on: VERPE
- measurement notes: Post-emergence herbicidal action against VERPE
- Type: in vivo, Veronica persica
- conditions used: 20 g/ha
Below is a list of entries, each paired with its recorded Post-emergence action against VERPE in % value.
measured metric: Post-emergence action against VERPE in % (%)

- CCn1nnnc1NC(=O)c1ccc(C(F)F)c(C(=O)NC(C)C2CC2)c1Br (stereo not shown) [Example 2-340]: 90
- CCn1nnnc1NC(=O)c1ccc(C(F)F)c(C(=O)NCCOC)c1C [Example 2-346]: 80
- CCc1c(C(=O)Nc2nnnn2C)ccc(C(F)(F)F)c1C(=O)NC(C)C1CC1 (stereo not shown) [Example 1-341]: 90
- CCn1nnnc1NC(=O)c1ccc(OC)c(C(=O)NC)c1Cl [Example 2-352]: 90
- CCc1c(C(=O)Nc2nnnn2CC)ccc(C(F)(F)F)c1C(=O)NC [Example 2-271]: 90
- CCn1nnnc1NC(=O)c1ccc(C(F)F)c(C(=O)NCCOC)c1Cl [Example 2-156]: 90
- CCn1nnnc1NC(=O)c1ccc(C(F)F)c(C(=O)NC)c1C1CC1 [Example 2-304]: 90
- CCn1nnnc1NC(=O)c1ccc(C(F)F)c(C(=O)NC(C)C2CC2)c1C (stereo not shown) [Example 2-339]: 80
- COCCNC(=O)c1c(C(F)F)ccc(C(=O)Nc2nnnn2C)c1Cl [Example 1-156]: 80
- CC(NC(=O)c1c(C(F)F)ccc(C(=O)Nc2nnnn2C)c1Br)C1CC1 (stereo not shown) [Example 1-340]: 80

###

- System: VIOTR
- measurement notes: Post-emergence herbicidal action against VIOTR
- Type: in vivo, Viola tricolor
- conditions used: Viola tricolor, 504 h, 20 g/ha
Below is a list of entries, each paired with its recorded pest or weed control at 20 g/ha value.
measured metric: pest or weed control at 20 g/ha (%)

* CCn1nnnc1NC(=O)c1ccc(C(F)(F)F)c(C(=O)NC2CC2)c1C | 100
* Cc1c(C(=O)Nc2nnnn2C)ccc(C(F)F)c1C(=O)NC(C)C | 100
* CNC(=O)c1c(C(F)(F)F)ccc(C(=O)Nc2nnc(C)o2)c1Cl | 80
* CCNC(=O)c1c(C(F)F)ccc(C(=O)Nc2nnnn2C)c1C | 90
* CCn1nnnc1NC(=O)c1ccc(I)c(C(=O)NC2CC2)c1Cl | 100
* CCc1c(C(=O)Nc2nnnn2CC)ccc(C(F)F)c1C(=O)NC1CC1 | 90
* CCn1nnnc1NC(=O)c1ccc(C(F)F)c(C(=O)NC(C)C)c1Cl | 80
